- System: LS-1034 (Colorectal Carcinoma)
- Experimental protocol: combination Emax (second highest fraction inhibited in the dose matrix, 72 h); higher = more inhibition; extreme values may be limits of the assay
Item-by-item account of combination Emax

Compound	combination Emax
COc1cccc(OCCCN)c1-c1cc(Nc2cnc(C#N)cn2)n[nH]1 [Prexasertib] + CCc1c2c(nc3ccc(O)cc13)-c1cc3c(c(=O)n1C2)COC(=O)[C@]3(O)CC [SN-38] (first compound max 1 µM, 7x7, partner max 0.3 µM)	0.897
CS(=O)(=O)CCNCc1ccc(-c2ccc3ncnc(Nc4ccc(OCc5cccc(F)c5)c(Cl)c4)c3c2)o1 [Lapatinib] + NC1(c2ccc(-c3nc4ccn5c(=O)[nH]nc5c4cc3-c3ccccc3)cc2)CCC1 [MK-2206] (first compound max 10 µM, 7x7, partner max 10 µM)	0.919
C=CCn1c(=O)c2cnc(Nc3ccc(N4CCN(C)CC4)cc3)nc2n1-c1cccc(C(C)(C)O)n1 [AZD1775] + O=C(c1cc(Cc2n[nH]c(=O)c3ccccc23)ccc1F)N1CCN(C(=O)C2CC2)CC1 [Olaparib] (first compound max 1 µM, partner max 10 µM)	0.372
COc1nnc2ccc(N3CCC(c4ccc(OCCN5CCN(C)C(=O)[C@H]5C)cc4)CC3)nn12 [AZD5153] + C=CCn1c(=O)c2cnc(Nc3ccc(N4CCN(C)CC4)cc3)nc2n1-c1cccc(C(C)(C)O)n1 [AZD1775] (first compound max 1 µM, partner max 1 µM)	0.613

====

- Tested on: WM35 (Melanoma)
- Experimental protocol: combination Emax (second highest fraction inhibited in the dose matrix, 72 h); higher = more inhibition; extreme values may be limits of the assay
Outcome label depends on combination Emax relative to 0.7: at/above gives fulfilled, below gives not fulfilled.

Compound	Assigned class
CC1(C)CCC(CN2CCN(c3ccc(C(=O)NS(=O)(=O)c4ccc(NCC5CCOCC5)c([N+](=O)[O-])c4)c(Oc4cnc5[nH]ccc5c4)c3)CC2)=C(c2ccc(Cl)cc2)C1 [Venetoclax] + C[C@@H](Nc1cc(F)cc(F)c1)c1cc(C(=O)N(C)C)cc2c(=O)cc(N3CCOCC3)oc12 [AZD8186] (first compound max 1 µM, 7x7, partner max 3 µM)	not fulfilled
COc1cc2ncnc(Nc3ccc(F)c(Cl)c3)c2cc1OCCCN1CCOCC1 [Gefitinib] + CC(C)n1c(=O)n(C)c2cnc3cc(F)c(-c4ccc(OCCCN5CCCCC5)nc4)cc3c21 [AZD1390] (first compound max 10 µM, 7x7, partner max 0.3 µM)	not fulfilled
COc1nnc2ccc(N3CCC(c4ccc(OCCN5CCN(C)C(=O)[C@H]5C)cc4)CC3)nn12 [AZD5153] + C[C@@H]1COCCN1C2=NC(=NC(=C2)C3(CC3)[S@](=N)(=O)C)C4=C5C=CNC5=NC=C4 [AZD6738] (first compound max 1 µM, 7x7, partner max 10 µM)	fulfilled
CN(CCO)CC[C@H](CSc1ccccc1)Nc1ccc(S(=O)(=O)NC(=O)c2ccc(N3CCC([C@@H](O)c4ccccc4-c4ccc(Cl)cc4)CC3)cc2)cc1S(=O)(=O)C(F)(F)F [AZD4320] + CN(C)CCCOc1ccc(-c2ccc3ncc4c(c3c2)n(C2CCOCC2)c(=O)n4C)cn1 [AZD0156] (first compound max 1 µM, 7x7, partner max 1 µM)	not fulfilled
C[C@@H](c1ccc2nccn2c1)n1nnc2ncc(-c3cnn(C)c3)nc21 [Savolitinib] + CN(CC[C@H](CSC1=CC=CC=C1)NC2=C(C=C(C=C2)S(=O)(=O)NC(=O)C3=CC=C(C=C3)N4CCC(CC4)[C@H](C5=CC=CC=C5C6=CC=C(C=C6)Cl)O)S(=O)(=O)C(F)(F)F)CCO [AZD4320] (first compound max 1 µM, 7x7, partner max 1 µM)	not fulfilled
Cn1cnc2c(F)c(Nc3ccc(Br)cc3Cl)c(C(=O)NOCCO)cc21 [Selumetinib] + CC(C)n1c(=O)n(C)c2cnc3cc(F)c(-c4ccc(OCCCN5CCCCC5)nc4)cc3c21 [AZD1390] (first compound max 10 µM, 7x7, partner max 0.3 µM)	not fulfilled
COc1cccc2c1C(=O)c1c(O)c3c(c(O)c1C2=O)C[C@@](O)(C(=O)CO)C[C@@H]3O[C@H]1C[C@H](N)[C@H](O)[C@H](C)O1 [Doxorubicin] + Cc1cc2ncnn2cc1Nc1ncc2c(n1)n(C1CCOCC1)c(=O)n2C [AZD7648] (first compound max 1 µM, 7x7, partner max 10 µM)	not fulfilled
Cc1cc2ncnn2cc1Nc1ncc2c(n1)n(C1CCOCC1)c(=O)n2C [AZD7648] + O=C(c1cc(Cc2n[nH]c(=O)c3ccccc23)ccc1F)N1CCN(C(=O)C2CC2)CC1 [Olaparib] (first compound max 10 µM, 7x7, partner max 10 µM)	not fulfilled
NC1(C(=O)N[C@@H](CCO)c2ccc(Cl)cc2)CCN(c2ncnc3[nH]ccc23)CC1 [Capivasertib] + CC(=O)c1c(C)c2cnc(Nc3ccc(N4CCNCC4)cn3)nc2n(C2CCCC2)c1=O [Palbociclib] (first compound max 10 µM, 7x7, partner max 10 µM)	not fulfilled
Cc1nc(Nc2ncc(C(=O)Nc3c(C)cccc3Cl)s2)cc(N2CCN(CCO)CC2)n1 [Dasatinib] + CC(=O)Nc1cccc(-n2c(=O)n(C3CC3)c(=O)c3c(Nc4ccc(I)cc4F)n(C)c(=O)c(C)c32)c1 [Trametinib] (first compound max 2 µM, 7x7, partner max 1 µM)	fulfilled
COc1cccc(OCCCN)c1-c1cc(Nc2cnc(C#N)cn2)n[nH]1 [Prexasertib] + CN(C)CCCOc1ccc(-c2ccc3ncc4c(c3c2)n(C2CCOCC2)c(=O)n4C)cn1 [AZD0156] (first compound max 1 µM, 7x7, partner max 1 µM)	fulfilled
